Assay: Pharmacokinetic test, oral, SD rats
Assay type: in vivo
Settings: rat, oral 10 mg/kg, plasma, read-out: Cmax
Experimental: Each test compound was administered orally (10 mg/kg, 3 rats in each group) to SD rats for pharmacokinetic study. […] Animals were fasted overnight before oral administration, and fed again after 4 h of administration. […] At each collection time point, 3 whole blood samples were collected at a the collection volume of about 0.2-0.3 mL. […] The collected plasma was stored at -20° C. before analysis. […]
property: Cmax (µg/mL)
Give bare numbers, in µg/mL.

[
  {
    "compound": "Nc1nccn2c(C3CCC(CO)OC3)nc(-c3ccc(Cc4ccccc4)cc3)c12 (centres unmarked) [Compound 106]",
    "unit.spec": "µg/mL",
    "Cmax": 1.22
  },
  {
    "compound": "Nc1nccn2c(C34CCC(CO)(CC3)OC4)nc(-c3ccc(C(=O)Nc4ccccn4)cc3)c12 [Compound 34]",
    "unit.spec": "µg/mL",
    "Cmax": 11.1
  },
  {
    "compound": "COc1ccccc1C(=O)NCc1ccc(-c2nn(C3CCC(CO)OC3)c3ncnc(N)c23)cc1 (single isomer, unassigned) [Compound 60-B]",
    "unit.spec": "µg/mL",
    "Cmax": 0.946
  },
  {
    "compound": "COc1cccc(Oc2ccc(-c3nc(C4CCC(CO)OC4)n4ccnc(N)c34)cc2)c1 (centres unmarked) [Compound 101]",
    "unit.spec": "µg/mL",
    "Cmax": 1.77
  },
  {
    "compound": "Nc1nccn2c(C34CCC(CO)(CC3)OC4)nc(-c3ccc(C(F)(F)c4cccc(Cl)c4F)cc3)c12 [Compound 152]",
    "unit.spec": "µg/mL",
    "Cmax": 0.2
  },
  {
    "compound": "COc1cccc(Oc2ccc(-c3nc(C4CCC(CO)OC4)n4ccnc(N)c34)cc2)c1C#N (single isomer, unassigned) [Compound 89-P1]",
    "unit.spec": "µg/mL",
    "Cmax": 2.98
  }
]

Take each entry in turn and give its Cmax.
1. Nc1nccn2c(C3CCC(CO)OC3)nc(-c3ccc(C(=O)Nc4cc(C(F)(F)F)ccn4)cc3)c12 (single isomer, unassigned) [Compound 109-P1]
2. O=C(c1ccc(Oc2ccccc2)cc1Cl)c1c[nH]c2ncnc(N[C@@H]3CC[C@@H](CO)OC3)c12 [ARQ-531, reference compound]
3. Nc1nccn2c(C34CCC(CO)(CC3)OC4)nc(-c3ccc(C(F)(F)c4ccccc4)cc3)c12 [Compound 125]
4. C=CC(=O)N1CCC[C@@H](n2nc(-c3ccc(Oc4ccccc4)cc3)c3c(N)ncnc32)C1 [Ibrutinib, reference compound]
5. Nc1nccn2c(C3CCC(CO)OC3)nc(-c3ccc(C(F)(F)c4ccccc4)cc3)c12 (centres unmarked) [Compound 111]
6. Nc1nccn2c(C34CCC(CO)(CC3)OC4)nc(-c3ccc(C(=O)Nc4cc(C(F)(F)F)ccn4)cc3)c12 [Compound 118]
7. N#Cc1ccnc(NC(=O)c2ccc(-c3nc(C4CCC(CO)OC4)n4ccnc(N)c34)cc2)c1 (centres unmarked) [Compound 103]
8. CC#CC(=O)N1CC[C@@H](n2c(=O)n(-c3ccc(Oc4ccccc4)cc3)c3c(N)ncnc32)C1 [Tirabrutinib, reference compound]

16.7
2.41
1.18
0.222
1.78
25.7
4.73
0.92
